# ASSAYED SYSTEM: T1, recombinant human LRRC33-proTGFβ1 complex (Homo sapiens, UniProt P01137)
# T1 construct: made in house
# T1 sequence (P01137 30-390): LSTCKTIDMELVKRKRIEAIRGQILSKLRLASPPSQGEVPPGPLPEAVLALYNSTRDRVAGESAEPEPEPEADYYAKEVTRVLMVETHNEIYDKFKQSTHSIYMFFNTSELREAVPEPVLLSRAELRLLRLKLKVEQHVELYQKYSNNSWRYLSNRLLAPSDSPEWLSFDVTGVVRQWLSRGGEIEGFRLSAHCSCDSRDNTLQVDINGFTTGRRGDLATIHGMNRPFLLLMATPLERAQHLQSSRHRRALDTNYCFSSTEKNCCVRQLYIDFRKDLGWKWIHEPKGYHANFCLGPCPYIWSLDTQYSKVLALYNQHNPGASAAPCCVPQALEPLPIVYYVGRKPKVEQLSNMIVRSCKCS
# T1 sequence (Q86YC3 19-650 partner limits assumed): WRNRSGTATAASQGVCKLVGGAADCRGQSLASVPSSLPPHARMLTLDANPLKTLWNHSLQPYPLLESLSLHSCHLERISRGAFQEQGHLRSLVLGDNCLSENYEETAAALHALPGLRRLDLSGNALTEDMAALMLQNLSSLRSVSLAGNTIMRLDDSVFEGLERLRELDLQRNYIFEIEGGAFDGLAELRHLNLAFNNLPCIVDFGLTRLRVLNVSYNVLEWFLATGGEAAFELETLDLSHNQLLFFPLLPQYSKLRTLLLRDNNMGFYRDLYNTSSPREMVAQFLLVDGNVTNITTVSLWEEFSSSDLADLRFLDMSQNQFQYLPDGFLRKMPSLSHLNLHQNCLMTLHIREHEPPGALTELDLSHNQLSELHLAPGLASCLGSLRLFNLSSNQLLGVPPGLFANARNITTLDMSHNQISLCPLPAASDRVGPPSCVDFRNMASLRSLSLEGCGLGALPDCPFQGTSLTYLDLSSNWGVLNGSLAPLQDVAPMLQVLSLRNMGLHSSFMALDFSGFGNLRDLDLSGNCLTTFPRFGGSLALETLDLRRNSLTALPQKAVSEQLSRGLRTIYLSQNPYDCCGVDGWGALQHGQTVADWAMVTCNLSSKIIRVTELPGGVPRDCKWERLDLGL
# EXPERIMENT SUMMARY: Octet (Biolayer Interferometry) in vitro kinetic binding
# CONDITIONS USED: in M
Below is a list of entries, each paired with its recorded (F) hLRRC33, Cell-associated proTGFb1 (KD) value.
Form rule: numeric answer, no unit written next to it.

For Ab13: monoclonal antibody; VH SEQ ID NO: 242, VL SEQ ID NO: 243 (antibody, V domains shown) VH: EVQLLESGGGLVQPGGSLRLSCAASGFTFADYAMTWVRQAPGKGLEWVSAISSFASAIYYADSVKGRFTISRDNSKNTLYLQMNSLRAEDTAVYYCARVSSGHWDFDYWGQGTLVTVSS VL: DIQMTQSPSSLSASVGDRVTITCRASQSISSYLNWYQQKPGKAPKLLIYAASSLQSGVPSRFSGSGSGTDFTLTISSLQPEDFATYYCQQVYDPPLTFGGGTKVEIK , write its (F) hLRRC33, Cell-associated proTGFb1 (KD).
1.40E−09

For Ab22: monoclonal antibody; VH SEQ ID NO: 130, VL SEQ ID NO: 15 (antibody, V domains shown) VH: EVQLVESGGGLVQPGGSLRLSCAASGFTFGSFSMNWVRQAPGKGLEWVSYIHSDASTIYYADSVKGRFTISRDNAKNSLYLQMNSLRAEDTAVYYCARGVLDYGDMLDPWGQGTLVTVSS VL: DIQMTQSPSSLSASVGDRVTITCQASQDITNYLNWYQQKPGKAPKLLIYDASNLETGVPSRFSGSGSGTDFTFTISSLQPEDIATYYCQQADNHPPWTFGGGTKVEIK , write its (F) hLRRC33, Cell-associated proTGFb1 (KD).
4.15E−10
